Kindly supply the reported GI50 values for the records listed here.
- Tested on: M14
- protocol_notes: NCI tumour cell line growth inhibition, 48 h
Activity calls are given as the source filed them. Cut-off read from the data, not from the text of the source: active = GI50 up to about 1.1 µM and inactive = higher.

Query block: For the compound shown here, [O-][n+]1c(CN2CCCCC2)nc2cccc3c2c1-c1ccccc1-3 , give the reported GI50.
Result block: 15.9 µM (inactive)

Query block: For the compound shown here, O=c1[nH]c(=O)n(C2CC(O)C(CO)O2)cc1COCC(F)(F)F (configuration not stated) , give the reported GI50.
Result block: > 100 µM (inactive)

Query block: For the compound shown here, COc1ccc2c(c1)/C(=C\c1c(-c3ccccc3)nc3n1CCS3)C(=O)N2 , give the reported GI50.
Result block: 6.9 µM (inactive)

Query block: For the compound shown here, CC(C)(C)c1cc(C(CO)OCCOCCO)cc(C(C)(C)C)c1O (configuration not stated) , give the reported GI50.
Result block: > 100 µM (inactive)

Query block: For the compound shown here, O=[N+]([O-])c1cccc(Cl)c1Oc1ccc(S(=O)(=O)N/C(=N\O)Nc2ccc(Cl)cc2)cc1 , give the reported GI50.
Result block: 14.2 µM (inactive)

Query block: For the compound shown here, O=C1/C(=C/c2ccc(Cl)cc2)CCC/C1=C\c1ccc(O)c(CN2CCCCC2)c1 , give the reported GI50.
Result block: 20.8 µM (inactive)

Query block: For the compound shown here, COC(=O)C(C)(C)NC(=O)C(Cc1ccccc1)Nc1ncnc2c1ncn2-c1ccc(OC)cc1 (configuration not stated) , give the reported GI50.
Result block: 42.7 µM (inactive)

====

- Tested on: OVCAR-5
- protocol_notes: NCI tumour cell line growth inhibition, 48 h
Calls of active or inactive are those of the source. No stated cut-off is given here; in the data, active = GI50 up to about 1.1 µM and inactive = higher.
Please state which outcome applies, choosing from Yes = active, No = inactive

Query block: Hi team, can someone confirm the assay call for CC(=O)Nc1nnc(S(C)(=O)=O)s1 ?
Result block: No

Query block: Hi team, can someone confirm the assay call for Nc1ncnc2c1ncn2[C@@H]1O[C@H](C(=O)O)[C@@H](O)[C@H]1O ?
Result block: No

Query block: Hi team, can someone confirm the assay call for CCNC(=O)C1CCCN1C(=O)C(CCCN=C(N)N)NC(=O)C(CC(C)C)NC(=O)C(Cc1c[nH]c2ccccc12)NC(=O)C(Cc1ccc(O)cc1)NC(=O)C(CO)NC(=O)C(Cc1c[nH]c2ccccc12)NC(=O)C(Cc1c[nH]cn1)NC(=O)C1CCC(=O)N1 (stereo not drawn) ?
Result block: No

Query block: Hi team, can someone confirm the assay call for C/C=C(\C)[C@@H](O)C(=O)O[C@@H]1CC(C(C)(C)O)[C@](C)(CCC(=O)OC)[C@H]2[C@H](OC(=O)[C@H](O)[C@H](C)CC)C[C@]3(C)C(=CC[C@H]3[C@H]3CO[C@H](C=C(C)C)C3)[C@]12C (stereo partly drawn) ?
Result block: No

Query block: Hi team, can someone confirm the assay call for Cc1cc(N(CCC#N)CCC#N)ccc1C(/N=N/c1ccc([N+](=O)[O-])cc1)=N\NC(=O)c1ccccc1 ?
Result block: No

Query block: Hi team, can someone confirm the assay call for O=C(O)c1c2c(cc3c1CC1(Cc4cc5c(cc4C1=O)CCC5)C3)CCC2 (stereo not drawn) ?
Result block: No

Query block: Hi team, can someone confirm the assay call for CCOC(=O)c1ccc(Nc2nc3ccccc3n3cccc23)cc1 ?
Result block: No

Query block: Hi team, can someone confirm the assay call for O=C(CN1CCN(Cc2ccccc2)CC1)N1CCCn2c1nc1ccccc1c2=O ?
Result block: No

Query block: Hi team, can someone confirm the assay call for CC(C)(C)C1CCC(=O)/C(=C/CC2CC(=O)N(c3ccccc3)C(=O)C2)C1 (stereo not drawn) ?
Result block: No

Query block: Hi team, can someone confirm the assay call for O=c1[nH]ncc2[nH]c3c(c12)CCCc1ccccc1-3 ?
Result block: No

Query block: Hi team, can someone confirm the assay call for NNC(=O)CNc1cccc(Br)c1 ?
Result block: No

Query block: Hi team, can someone confirm the assay call for CN(CCc1ccccn1)/[N+]([O-])=N/O.CNCCc1ccccn1 ?
Result block: No

Query block: Hi team, can someone confirm the assay call for O=C(NC(Cc1ccccc1)C(=O)CCl)OCc1ccccc1 (stereo not drawn) ?
Result block: No

Query block: Hi team, can someone confirm the assay call for NC1=NN(c2ccccc2)C(=O)C1C(=O)CCC(=O)Nc1cccc(C(F)(F)F)c1 (stereo not drawn) ?
Result block: No

Query block: Hi team, can someone confirm the assay call for CC1=C(Cl)C=CP(=O)(OC(C)C)C1 (stereo not drawn) ?
Result block: No

Query block: Hi team, can someone confirm the assay call for N#CC12C(=O)N3C(=NC(c4ccco4)NC3c3ccco3)C1(C#N)C(c1ccco1)NC1=C2CCCC1 (stereo not drawn) ?
Result block: No

Query block: Hi team, can someone confirm the assay call for CC[C@@H](/C=C\CCC1(C[C@@H](N)CCC=C(C)C)OCCO1)O[Si](C(C)C)(C(C)C)C(C)C ?
Result block: No

Query block: Hi team, can someone confirm the assay call for C[C@@H]1OC(=O)C[C@H]2CC(=O)N(CCC3CN(S(=O)(=O)C(F)(F)F)c4ccccc43)C[C@@H]21 (stereo partly drawn) ?
Result block: No

Query block: Hi team, can someone confirm the assay call for COCC(=O)[C@]1(O)Cc2c(O)c3c(c(O)c2[C@@H](OC2CC(N)C(O)C(C)O2)C1)C(=O)c1c(OC)cccc1C3=O (stereo partly drawn) ?
Result block: Yes

Query block: Hi team, can someone confirm the assay call for CCCCCCCCCCSC(=O)NC ?
Result block: No

Query block: Hi team, can someone confirm the assay call for CN(CO)c1nc(N(C)CO)nc(N(C)CO)n1 ?
Result block: No

Query block: Hi team, can someone confirm the assay call for Cc1cc(C)c2c(n1)S(=O)(=O)N(CCCN1CCN(c3cccc(C(F)(F)F)c3)CC1)c1c-2nn(C)c1C ?
Result block: No

Query block: Hi team, can someone confirm the assay call for O=C1CCCCC1S(=O)(=O)c1ccccc1 (stereo not drawn) ?
Result block: No
